# test.system: Histone deacetylase 1 (Homo sapiens, UniProt Q13547)
# Sequence (Q13547 whole entry, the tested form may be a part): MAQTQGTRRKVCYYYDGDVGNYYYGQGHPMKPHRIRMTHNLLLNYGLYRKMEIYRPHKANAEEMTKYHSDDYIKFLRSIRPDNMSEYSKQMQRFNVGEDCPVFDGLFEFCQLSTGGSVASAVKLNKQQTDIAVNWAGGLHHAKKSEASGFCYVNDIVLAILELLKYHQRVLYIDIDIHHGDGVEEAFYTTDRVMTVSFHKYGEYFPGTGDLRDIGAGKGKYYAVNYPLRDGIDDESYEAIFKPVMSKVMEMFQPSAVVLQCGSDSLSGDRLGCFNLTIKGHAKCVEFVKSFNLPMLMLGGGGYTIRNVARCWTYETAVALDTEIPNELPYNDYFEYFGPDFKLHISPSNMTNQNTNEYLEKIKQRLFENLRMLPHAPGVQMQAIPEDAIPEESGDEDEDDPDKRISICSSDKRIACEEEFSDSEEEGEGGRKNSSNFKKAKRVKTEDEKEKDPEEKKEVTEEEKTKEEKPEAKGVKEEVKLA
# procedure.summary: Inhibition of full length recombinant human GST fused His6-tagged HDAC1 expressed in baculovirus infected High5 cells using Ac-Lys-Tyr-Lys(epsilon-acetyl)-AMC as substrate measured after 24 hrs
experimental.readout: IC50 (nM)
Give just the numeric value; nM need not be written.

Using known records, supply IC50 for O=C(CCCCCCC(=O)Nc1cc2ncnc(Nc3cccc(F)c3)c2s1)NO
73.7

Using known records, supply IC50 for N#Cc1cccc(Nc2ncnc3cc(NC(=O)CCCCCCC(=O)NO)sc23)c1
45

Using known records, supply IC50 for O=C(CCCCCCC(=O)Nc1cc2ncnc(Nc3cccc(Br)c3)c2s1)NO
54.5

Using known records, supply IC50 for COc1ccc(Nc2ncnc3cc(NC(=O)CCCCCCC(=O)NO)sc23)c(C)c1
117

Using known records, supply IC50 for CCc1cccc(Nc2ncnc3cc(NC(=O)CCCCCCC(=O)NO)sc23)c1
116

Using known records, supply IC50 for COc1cccc(Nc2ncnc3cc(NC(=O)CCCCCCC(=O)NO)sc23)c1
62.2

Using known records, supply IC50 for O=C(CCCCCCC(=O)Nc1cc2ncnc(Nc3cccc(Cl)c3)c2s1)NO
53.8

Using known records, supply IC50 for Cc1ccccc1Nc1ncnc2cc(NC(=O)CCCCCC(=O)NO)sc12
138

---

I'd appreciate it if you could supply IC50 values for the items below.
# test.system: UniProtKB O15379
# Sequence (O15379 whole entry, the tested form may be a part): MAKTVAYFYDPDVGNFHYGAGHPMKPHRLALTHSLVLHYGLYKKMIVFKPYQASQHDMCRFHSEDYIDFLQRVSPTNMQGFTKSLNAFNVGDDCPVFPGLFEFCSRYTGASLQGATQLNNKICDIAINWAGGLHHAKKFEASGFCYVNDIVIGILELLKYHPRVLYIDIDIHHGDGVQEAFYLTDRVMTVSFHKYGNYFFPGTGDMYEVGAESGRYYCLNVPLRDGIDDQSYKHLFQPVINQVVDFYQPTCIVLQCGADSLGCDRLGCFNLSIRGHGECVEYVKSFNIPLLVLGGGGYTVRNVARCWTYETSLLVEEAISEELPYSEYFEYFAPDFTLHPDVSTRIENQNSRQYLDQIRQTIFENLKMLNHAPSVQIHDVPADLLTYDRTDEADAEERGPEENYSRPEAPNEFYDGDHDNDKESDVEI
# procedure.summary: Inhibition of full length recombinant human GST fused His6-tagged HDAC3 expressed in baculovirus infected High5 cells using Ac-Lys-Tyr-Lys(epsilon-acetyl)-AMC as substrate measured after 24 hrs
Give just the numeric value; nM need not be written.

Using known records, supply IC50 for O=C(CCCCCCC(=O)Nc1cc2ncnc(Nc3cccc(Cl)c3)c2s1)NO
45.5

Using known records, supply IC50 for COc1cccc(Nc2ncnc3cc(NC(=O)CCCCCCC(=O)NO)sc23)c1
21.4

Using known records, supply IC50 for O=C(CCCCCCC(=O)Nc1cc2ncnc(Nc3cccc(F)c3)c2s1)NO
64.5

Using known records, supply IC50 for N#Cc1cccc(Nc2ncnc3cc(NC(=O)CCCCCCC(=O)NO)sc23)c1
19.8

Using known records, supply IC50 for Cc1ccccc1Nc1ncnc2cc(NC(=O)CCCCCC(=O)NO)sc12
98.8

Using known records, supply IC50 for COc1ccc(Nc2ncnc3cc(NC(=O)CCCCCCC(=O)NO)sc23)c(C)c1
144

Using known records, supply IC50 for O=C(CCCCCCC(=O)Nc1cc2ncnc(Nc3cccc(Br)c3)c2s1)NO
33.8

Using known records, supply IC50 for CCc1cccc(Nc2ncnc3cc(NC(=O)CCCCCCC(=O)NO)sc23)c1
147

---

# Test system: HCT-116
# procedure.summary: Antiproliferative activity against human HCT116 cells after 72 hrs by CellTiter 96 AQueous Non-Radioactive assay
# Type: functional, cell-based
# condition: HCT-116, 72 h
experimental.readout: pIC50
For clarity, pIC50 is expressed as the negative log10 of concentration in mol/L.

Using known records, supply pIC50 for CCc1cccc(Nc2ncnc3cc(NC(=O)CCCCCCC(=O)NO)sc23)c1
5.84

Using known records, supply pIC50 for COc1ccc(Nc2ncnc3cc(NC(=O)CCCCCCC(=O)NO)sc23)c(C)c1
5.61

Using known records, supply pIC50 for O=C(CCCCCCC(=O)Nc1cc2ncnc(Nc3cccc(Cl)c3)c2s1)NO
5.74

Using known records, supply pIC50 for Cc1ccccc1Nc1ncnc2cc(NC(=O)CCCCCC(=O)NO)sc12
5.59

Using known records, supply pIC50 for O=C(CCCCCCC(=O)Nc1cc2ncnc(Nc3cccc(F)c3)c2s1)NO
5.75

Using known records, supply pIC50 for O=C(CCCCCCC(=O)Nc1cc2ncnc(Nc3cccc(Br)c3)c2s1)NO
5.76

Using known records, supply pIC50 for COc1cccc(Nc2ncnc3cc(NC(=O)CCCCCCC(=O)NO)sc23)c1
5.88

Using known records, supply pIC50 for N#Cc1cccc(Nc2ncnc3cc(NC(=O)CCCCCCC(=O)NO)sc23)c1
5.68

Source of measurements: ChEMBL document CHEMBL4004853
